target: T1, Human serum albumin (human, UniProt P02768 25-609); experiment: BLI (Octet) as in Example 1, His-tagged VHH, HSA
T1 construct: also called HSA
Reported koff values follow for various binders
Measure: koff (s⁻¹)

| Binder | Result Value |
| --- | --- |
| HS10 (VHH, not shown: C-terminal His-tag) VHH: EVQLVESGGGLVQPGGSLRLSCAASGSTDSAYRMGWFRQAPGKEREFVSAINWSDGRTYYADSVKGRFTISRDNSKNTLYLQMNSLRAEDTAVYYCAADPDSRLYYTVPQNYDYWGQGTLVTVSS | 8.01e-05 |
| HS5 (VHH, not shown: C-terminal His-tag) VHH: EVQLVESGGGLVQAGGSLRLSCAASGRTFTTHAMGWFRQAPGKEREFVATINWGGRTTYYADSVKGRFIISRDTGANTVYLQMNSLKPEDTAVYYCASNLDTYNVRAGTTNSWGQGTQVTVSS | 0.000765 |
| HS6 (VHH, not shown: C-terminal His-tag) VHH: EVQLVESGGGLVQAGGSLRLSCAASGRIFHTYAVGWFRQAPGKERESVVIINWSSDHTYVAQSVKGRFTISRDRAKNTFYLQMNSLKPEDTAVYYCAVRRRLYGLRESDFDSWGQGTQVTVSS | 0.000829 |
| HS12 (VHH, not shown: C-terminal His-tag) VHH: QVQLVESGGGSVQAGGSLRLSCAASGRTFISFSMGWFRQAPGKEREFVASITNSGSGILYGDSVKGRFTISRDNAKNTMYLQMNSLKPEDTAVYYCAAGTGAGRYRYASMFDYWGQGTQVTVSS | 0.000583 |

Source listed as patent US12723105.
